molecular target: P-Rex2 PH domain (Homo sapiens, UniProt Q70Z35)
Sequence (Q70Z35 219-364): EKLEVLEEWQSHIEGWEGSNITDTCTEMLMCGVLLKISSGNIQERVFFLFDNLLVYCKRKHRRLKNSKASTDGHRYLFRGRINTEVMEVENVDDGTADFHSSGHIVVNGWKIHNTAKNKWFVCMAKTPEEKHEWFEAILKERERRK
recorded.endpoint: Kd (µM)
Give bare numbers, in µM.

So for O=P(O)(O)OC1[C@H](O)[C@H](OP(=O)(O)O)C(OP(=O)(O)O)[C@H](OP(=O)(O)O)[C@H]1O (stereo partly drawn) [Ins(1,3,4,5)P4, D-myo-Inositol-1,3,4,5-tetraphosphate] , the logged Kd turned out to be 0.24
